The reported measurements were obtained from the supplement of paper PMC9112550.

# Tested on: Escherichia coli TOP10
# Assay: shrunken log2 fold change of peptide-encoding DNA abundance (4.5 h post-induction vs induction); higher = less antimicrobial activity (less host growth inhibition)
# Cond: time post-induction: 4.5 h; library: site-saturation at positions 5, 18, 19, 20
Measurement name: shrunken log2 fold change
// no unit string in output, number only

These recorded examples may help you get a feel for the data.
[[record]]
entry_sequence = "RRIRMRPPRLPRPRPRPAGVPRP"
value = 0.688

[[record]]
entry_sequence = "RRIRYRPPRLPRPRPRPFCAPRP"
value = -0.415

[[record]]
entry_sequence = "RRIRTRPPRLPRPRPRPQWEPRP"
value = 0.0154

[[record]]
entry_sequence = "RRIRNRPPRLPRPRPRPIVAPRP"
value = -0.367


Req: What shrunken log2 fold change appears in the records for this sequence with Escherichia coli TOP10? RRIRARPPRLPRPRPRPMGRPRP
Resp: 0.275

Req: Look up shrunken log2 fold change with Escherichia coli TOP10 for this sequence: RRIRTRPPRLPRPRPRPHQNPRP
Resp: -0.253

Req: Form: Entry = RRIRNRPPRLPRPRPRPVFAPRP | System = Escherichia coli TOP10 | shrunken log2 fold change = ____
Resp: -0.0312

Req: Recorded shrunken log2 fold change for RRIRTRPPRLPRPRPRPGHLPRP with Escherichia coli TOP10, please?
Resp: -0.377

Req: Tell me reported shrunken log2 fold change for RRIRFRPPRLPRPRPRPIDEPRP , tested with Escherichia coli TOP10.
Resp: 0.121

Req: Recorded shrunken log2 fold change for RRIRHRPPRLPRPRPRPMLMPRP with Escherichia coli TOP10, please?
Resp: -0.121

Req: Return shrunken log2 fold change measured with Escherichia coli TOP10 given this sequence: RRIRPRPPRLPRPRPRPFPWPRP
Resp: -0.0429

Req: What is its shrunken log2 fold change for Escherichia coli TOP10? Entry: RRIRDRPPRLPRPRPRPERMPRP
Resp: 0.216

Req: // lookup shrunken log2 fold change | system=Escherichia coli TOP10 | key= RRIRVRPPRLPRPRPRPAYWPRP
Resp: -0.000323

Req: Escherichia coli TOP10 / shrunken log2 fold change / RRIRGRPPRLPRPRPRPHPCPRP : value?
Resp: 0.922

Req: Request body: readout shrunken log2 fold change, system Escherichia coli TOP10, query RRIRWRPPRLPRPRPRPDPKPRP . Return the value.
Resp: -0.0134

----------
# System: Escherichia coli TOP10;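 also: peptides expressed intracellularly from a pBAD plasmid library in pooled LB shake-flask culture, induced with 0.3% L-arabinose, DNA abundance read by NGS, three biological replicates, DESeq2 with apeglm shrinkage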
# Assay: shrunken log2 fold change of peptide-encoding DNA abundance (4.5 h post-induction vs induction); higher = less antimicrobial activity (less host growth inhibition)
# Cond: time post-induction: 4.5 h; library: site-saturation at positions 5, 18, 19, 20
Measurement name: shrunken log2 fold change
Please give the numeric answer without any surrounding text.

[[record]]
entry_sequence = "RRIRYRPPRLPRPRPRPNLEPRP"
test_target = "Escherichia coli TOP10"
value = -0.113

[[record]]
entry_sequence = "RRIRWRPPRLPRPRPRPSLIPRP"
test_target = "Escherichia coli TOP10"
value = -0.574

[[record]]
entry_sequence = "RRIRERPPRLPRPRPRPEWDPRP"
test_target = "Escherichia coli TOP10"
value = -0.105


Req: Data request, read-out shrunken log2 fold change, for RRIRNRPPRLPRPRPRPTGVPRP
Resp: 0.147

Req: // query shrunken log2 fold change value for entry RRIRFRPPRLPRPRPRPMLCPRP
Resp: -0.103

Req: Find the recorded shrunken log2 fold change belonging to RRIRFRPPRLPRPRPRPDRVPRP and report it.
Resp: 0.0813

Req: What value of shrunken log2 fold change has been recorded for this entry: RRIRIRPPRLPRPRPRPDKGPRP
Resp: 0.0101

Req: What value of shrunken log2 fold change has been reported for the following sequence? RRIRPRPPRLPRPRPRPPHVPRP
Resp: 0.782

Req: Which value of shrunken log2 fold change has been reported for RRIRPRPPRLPRPRPRPIFAPRP in the records?
Resp: 0.33
